Target: T1, human c-Met, membrane-bound on cells (human, UniProt P08581 25-1390)
T1 construct: whole, on cells; A431 cells carry on average 30,000 copies of c-Met per cell (Qifi); also called c-Met expressed on A431 cells; c-Met on A549 cells
T1 sequence (P08581 25-1390): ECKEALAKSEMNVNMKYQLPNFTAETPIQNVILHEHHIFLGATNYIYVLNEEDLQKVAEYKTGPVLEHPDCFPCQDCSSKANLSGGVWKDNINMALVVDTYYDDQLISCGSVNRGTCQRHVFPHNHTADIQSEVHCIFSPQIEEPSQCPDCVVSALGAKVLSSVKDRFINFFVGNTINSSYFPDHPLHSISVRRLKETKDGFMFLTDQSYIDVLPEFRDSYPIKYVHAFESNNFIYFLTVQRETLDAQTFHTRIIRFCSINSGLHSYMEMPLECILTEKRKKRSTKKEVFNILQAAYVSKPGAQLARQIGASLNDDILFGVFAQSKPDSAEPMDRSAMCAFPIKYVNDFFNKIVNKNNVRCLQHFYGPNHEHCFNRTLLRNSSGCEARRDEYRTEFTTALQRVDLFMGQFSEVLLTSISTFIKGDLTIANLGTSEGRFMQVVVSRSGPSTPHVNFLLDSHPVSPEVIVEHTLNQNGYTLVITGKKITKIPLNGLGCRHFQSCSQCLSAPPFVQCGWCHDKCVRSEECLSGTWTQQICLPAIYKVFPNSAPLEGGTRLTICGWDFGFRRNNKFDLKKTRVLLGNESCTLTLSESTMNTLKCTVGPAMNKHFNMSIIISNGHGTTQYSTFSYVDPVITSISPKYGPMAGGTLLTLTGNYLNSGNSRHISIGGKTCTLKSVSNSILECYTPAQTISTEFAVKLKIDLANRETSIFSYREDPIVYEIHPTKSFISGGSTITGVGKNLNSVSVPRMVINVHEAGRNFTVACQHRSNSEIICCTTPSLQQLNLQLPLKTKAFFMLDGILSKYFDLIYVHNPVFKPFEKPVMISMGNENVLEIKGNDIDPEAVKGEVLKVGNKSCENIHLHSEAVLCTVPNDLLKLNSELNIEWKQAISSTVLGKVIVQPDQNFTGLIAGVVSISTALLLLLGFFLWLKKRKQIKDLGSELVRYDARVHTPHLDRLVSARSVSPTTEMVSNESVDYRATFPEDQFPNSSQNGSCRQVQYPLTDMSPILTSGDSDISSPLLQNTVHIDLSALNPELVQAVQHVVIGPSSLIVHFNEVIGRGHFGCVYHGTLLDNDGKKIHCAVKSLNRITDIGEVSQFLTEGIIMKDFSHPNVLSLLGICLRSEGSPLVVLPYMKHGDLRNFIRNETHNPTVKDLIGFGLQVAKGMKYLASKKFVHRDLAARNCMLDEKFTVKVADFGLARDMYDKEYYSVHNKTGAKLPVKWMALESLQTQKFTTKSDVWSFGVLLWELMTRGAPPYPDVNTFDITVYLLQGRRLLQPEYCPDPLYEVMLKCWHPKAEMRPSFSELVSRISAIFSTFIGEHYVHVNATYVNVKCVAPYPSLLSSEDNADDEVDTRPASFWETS
Assay: flow cytometry on A431 cells (PE goat anti-human IgG); top panel
pEC50: −log10 of the molar value.
The following binders are shown together with reported pEC50 values.
READOUT: pEC50

INSERT INTO assay_data (binder, readout, quantitative_readout) VALUES
  ('IgG4-058 (antibody, V domains shown, IgG4 format of clone 058; also called IgG4-1016-058) VH: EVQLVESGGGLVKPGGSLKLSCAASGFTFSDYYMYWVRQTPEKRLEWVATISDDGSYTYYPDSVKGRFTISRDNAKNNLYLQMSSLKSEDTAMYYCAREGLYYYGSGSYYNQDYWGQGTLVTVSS VL: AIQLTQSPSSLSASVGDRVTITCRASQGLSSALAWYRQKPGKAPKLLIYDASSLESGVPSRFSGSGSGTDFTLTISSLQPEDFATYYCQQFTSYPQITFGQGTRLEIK', 'pEC50', 9.56),
  ('Uni-1016-058-TE (other, also called UniBody molecule of antibody 058) VH: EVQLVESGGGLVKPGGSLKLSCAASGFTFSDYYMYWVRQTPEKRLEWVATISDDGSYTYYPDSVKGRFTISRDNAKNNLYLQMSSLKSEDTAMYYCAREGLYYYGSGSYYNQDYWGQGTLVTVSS VL: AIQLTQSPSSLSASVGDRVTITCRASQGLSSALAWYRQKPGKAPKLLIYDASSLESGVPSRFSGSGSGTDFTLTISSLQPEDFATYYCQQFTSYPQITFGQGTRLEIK', 'pEC50', 9.17),
  ('Uni-1016-006 (other, also called UniBody molecule of antibody 006) VH: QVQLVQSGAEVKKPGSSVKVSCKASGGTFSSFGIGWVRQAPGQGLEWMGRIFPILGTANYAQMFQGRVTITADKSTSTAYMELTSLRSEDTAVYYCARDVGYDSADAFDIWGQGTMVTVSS VL: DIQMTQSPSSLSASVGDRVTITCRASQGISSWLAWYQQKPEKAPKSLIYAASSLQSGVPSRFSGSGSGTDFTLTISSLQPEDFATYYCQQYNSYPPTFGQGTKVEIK', 'pEC50', 9.49),
  ('anti-c-Met HuMab 006 (IgG1) (antibody, V domains shown, also called TH1016-006; PC1016-006) VH: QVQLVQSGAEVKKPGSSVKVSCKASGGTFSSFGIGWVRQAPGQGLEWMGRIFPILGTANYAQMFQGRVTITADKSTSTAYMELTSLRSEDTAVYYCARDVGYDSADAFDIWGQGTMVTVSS VL: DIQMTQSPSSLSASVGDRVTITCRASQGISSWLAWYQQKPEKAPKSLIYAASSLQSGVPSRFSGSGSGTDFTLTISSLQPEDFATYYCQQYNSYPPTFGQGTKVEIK', 'pEC50', 8.63);
